Recorded values, source patent US20090118285A1.

# testDescription: in vivo
# testContext: Wistar, rat, sc
measuredParameter: ED50 at 2 h

[
  {
    "molecule": "CCOC(=O)Nc1ccc(NCc2ccc(F)cc2)cc1N",
    "recordedValue": "> 8.1 mg/kg"
  }
]

As a next step, examine the molecule that follows.
Incoming: So what does the record say about ED50 at 2 h for [Li] [Lithium-chloride] ?
Outgoing: > 40 mg/kg

###

# testDescription: Inhibition of baseline motility in vehicle-pretreated, vehicle-challenged mice
# testContext: NMRI, mouse, in vivo, subcutaneous
Sorting guide: entries reporting ED50 at 30 min beneath 3 mg/kg go in the MET pile, the rest go in the NOT MET pile.

Incoming: Determine if "Cc1cc(N2CCOCC2)cc(C)c1NC(=O)CC1CCCC1" shows ED50 at 30 min strictly lower than 3 mg/kg.
Outgoing: MET

Incoming: Try "CCC(=O)Nc1c(Br)cc(N2CCOCC2)cc1C(F)(F)F" next.
Outgoing: NOT MET

###

# testDescription: Motility inhibition (sedative properties) without d-amphetamine, rat
# testContext: Wistar, in vivo, sc
Here, each record is paired with measured ED50 at 2 h data.

[
  {
    "structureString": "Cc1cc(N2CCOCC2)cc(C)c1NC(=O)CC1CCCC1",
    "ED50 at 2 h": "5.3 mg/kg"
  }
]

Incoming: So what does the record say about ED50 at 2 h for "Cc1cc(N2CCOCC2)cc(C)c1NC(=O)CC(C)(C)C" ?
Outgoing: 7.6 mg/kg

###

Here, each record is paired with measured ED50 at 30 min data.
# testDescription: Inhibition of baseline motility in vehicle-pretreated, vehicle-challenged mice
# testContext: NMRI, mouse, in vivo, subcutaneous
Supply the numeric figure in mg/kg, leaving out any unit text.

Take a look at these entries with their results.
[
  {
    "structureString": "COc1cc(N2CCOCC2)cc(C)c1NC(=O)CC1CCCC1",
    "recordedValue": 3
  },
  {
    "structureString": "Cc1cc(N2CCOCC2)nc(C)c1NC(=O)CC(C)(C)C",
    "recordedValue": 3.1
  }
]

As a next step, examine the compound that follows.
Incoming: So what does the record say about ED50 at 30 min for "Cc1nc(N2CCOCC2)nc(C)c1NC(=O)CC1CCCC1" ?
Outgoing: 2.5
